Test system: HEK293 cells
Assay: HEK293 cell viability, CellTiter-Glo assay
Assay type: cell-based, Human
Conditions: tested up to 100 μM
parameter_measured: toxicity in HEK293 cells (in words)

O=C1NN(c2cccc(Br)c2)C(=O)/C1=C1/C(=O)Nc2ccccc21 = moderate toxicity
CN1C(=O)/C(=C/c2cccc([N+](=O)[O-])c2)C(=O)N1c1ccccc1 = moderate toxicity
